# run-description: Displacement of [3H]DADLE from human recombinant delta2 opioid receptor
readout-label: IC50

Q) For the compound shown here, Nn1c(CCCCN2CCN(c3ccc4ccccc4n3)CC2)nc2c(c1=O)CCCC2 , give the reported IC50.
A) > 1000 nM

###

# study-target: UniProt:P08588
# Sequence (P08588 whole entry): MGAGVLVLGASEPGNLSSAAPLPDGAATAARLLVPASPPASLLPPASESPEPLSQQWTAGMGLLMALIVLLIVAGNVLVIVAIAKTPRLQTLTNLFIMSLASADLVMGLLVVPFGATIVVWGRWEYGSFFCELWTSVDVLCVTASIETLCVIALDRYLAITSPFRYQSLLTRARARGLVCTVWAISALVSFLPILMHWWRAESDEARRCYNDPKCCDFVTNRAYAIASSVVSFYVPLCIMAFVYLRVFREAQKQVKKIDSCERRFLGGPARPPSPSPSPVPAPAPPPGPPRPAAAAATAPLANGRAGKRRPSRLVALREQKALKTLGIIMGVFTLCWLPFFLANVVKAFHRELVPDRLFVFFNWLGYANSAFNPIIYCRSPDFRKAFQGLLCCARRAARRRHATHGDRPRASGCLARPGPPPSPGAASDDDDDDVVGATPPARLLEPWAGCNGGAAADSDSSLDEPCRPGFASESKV
# run-description: Displacement of [3H](-)CGP12177 from human recombinant beta-1 adrenergic receptor
readout-label: IC50

Q) For the molecule shown here, Nn1c(CCCCN2CCN(c3ccc4ccccc4n3)CC2)nc2c(c1=O)CCCC2 , give the reported IC50.
A) > 1 µM

###

# study-target: 5-hydroxytryptamine receptor 1A (Homo sapiens, UniProt P08908)
# Sequence (P08908 whole entry): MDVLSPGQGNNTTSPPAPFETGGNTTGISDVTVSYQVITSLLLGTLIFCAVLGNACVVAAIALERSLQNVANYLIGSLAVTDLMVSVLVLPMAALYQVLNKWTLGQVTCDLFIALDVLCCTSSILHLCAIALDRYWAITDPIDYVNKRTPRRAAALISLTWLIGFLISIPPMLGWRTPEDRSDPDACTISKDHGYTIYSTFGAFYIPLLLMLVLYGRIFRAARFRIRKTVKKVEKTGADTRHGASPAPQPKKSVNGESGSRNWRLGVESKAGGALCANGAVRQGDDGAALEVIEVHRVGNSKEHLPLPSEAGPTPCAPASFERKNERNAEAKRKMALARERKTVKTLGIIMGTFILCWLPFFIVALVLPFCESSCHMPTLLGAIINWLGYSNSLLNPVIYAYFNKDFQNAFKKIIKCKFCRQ
# run-description: Displacement of [3H]8-OH-DPAT from human 5HT1A receptor expressed in CHO cells by liquid scintillation counting
# Format: cell-based
For each record, write down the corresponding IC50.
Give bare numbers, in nM.

| test-smiles | IC50 (nM) |
| --- | --- |
| Nn1c(CCCCN2CCN(c3ccc4ccc(O)cc4n3)CC2)nc2c(c1=O)CCCC2 | 46.6 |

We now examine a further compound.
Q) For the compound shown here, Cc1sc2nc(SCCCN3CCN(c4nc5ccccc5c5ccccc45)CC3)n(N)c(=O)c2c1C , give the reported IC50.
A) 55.4

Data origin: ChEMBL document CHEMBL1275331
